Collected pKd values appear next to each entry.
- measurementTarget: STK17A (Homo sapiens, UniProt Q9UEE5)
- Sequence (Q9UEE5 whole entry): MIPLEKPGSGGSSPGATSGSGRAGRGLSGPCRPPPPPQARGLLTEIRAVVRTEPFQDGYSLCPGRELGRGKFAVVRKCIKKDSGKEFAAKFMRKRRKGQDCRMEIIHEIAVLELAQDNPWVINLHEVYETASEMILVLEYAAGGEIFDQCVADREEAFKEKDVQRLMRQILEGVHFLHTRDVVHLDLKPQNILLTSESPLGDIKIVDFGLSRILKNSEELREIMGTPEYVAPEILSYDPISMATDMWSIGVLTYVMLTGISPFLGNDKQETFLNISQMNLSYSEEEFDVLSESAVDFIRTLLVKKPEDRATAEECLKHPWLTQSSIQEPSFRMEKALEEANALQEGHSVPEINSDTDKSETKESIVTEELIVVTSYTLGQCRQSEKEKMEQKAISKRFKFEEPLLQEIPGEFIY
- assayRemarks: biochemical
- protocolConditions: read-out: KDapp
Give only the number. pKd is defined as minus log10 of concentration in molar units.

CN(C)CC(O)COc1ccc(Nc2ncc([N+](=O)[O-])c(Nc3ccccc3O)n2)cc1.O=C(O)C(F)(F)F (centres unmarked) [TCMDC-141399] | 5.59

Using the record for CN1CCN(c2ccc(Nc3ncc(C#N)c(Nc4ccccc4C(N)=O)n3)cc2)CC1.Cl [TCMDC-134116] , state its measured pKd.
6.96

* * *

- measurementTarget: TAOK2 (Homo sapiens)
- Sequence (Q9UL54 1-1235): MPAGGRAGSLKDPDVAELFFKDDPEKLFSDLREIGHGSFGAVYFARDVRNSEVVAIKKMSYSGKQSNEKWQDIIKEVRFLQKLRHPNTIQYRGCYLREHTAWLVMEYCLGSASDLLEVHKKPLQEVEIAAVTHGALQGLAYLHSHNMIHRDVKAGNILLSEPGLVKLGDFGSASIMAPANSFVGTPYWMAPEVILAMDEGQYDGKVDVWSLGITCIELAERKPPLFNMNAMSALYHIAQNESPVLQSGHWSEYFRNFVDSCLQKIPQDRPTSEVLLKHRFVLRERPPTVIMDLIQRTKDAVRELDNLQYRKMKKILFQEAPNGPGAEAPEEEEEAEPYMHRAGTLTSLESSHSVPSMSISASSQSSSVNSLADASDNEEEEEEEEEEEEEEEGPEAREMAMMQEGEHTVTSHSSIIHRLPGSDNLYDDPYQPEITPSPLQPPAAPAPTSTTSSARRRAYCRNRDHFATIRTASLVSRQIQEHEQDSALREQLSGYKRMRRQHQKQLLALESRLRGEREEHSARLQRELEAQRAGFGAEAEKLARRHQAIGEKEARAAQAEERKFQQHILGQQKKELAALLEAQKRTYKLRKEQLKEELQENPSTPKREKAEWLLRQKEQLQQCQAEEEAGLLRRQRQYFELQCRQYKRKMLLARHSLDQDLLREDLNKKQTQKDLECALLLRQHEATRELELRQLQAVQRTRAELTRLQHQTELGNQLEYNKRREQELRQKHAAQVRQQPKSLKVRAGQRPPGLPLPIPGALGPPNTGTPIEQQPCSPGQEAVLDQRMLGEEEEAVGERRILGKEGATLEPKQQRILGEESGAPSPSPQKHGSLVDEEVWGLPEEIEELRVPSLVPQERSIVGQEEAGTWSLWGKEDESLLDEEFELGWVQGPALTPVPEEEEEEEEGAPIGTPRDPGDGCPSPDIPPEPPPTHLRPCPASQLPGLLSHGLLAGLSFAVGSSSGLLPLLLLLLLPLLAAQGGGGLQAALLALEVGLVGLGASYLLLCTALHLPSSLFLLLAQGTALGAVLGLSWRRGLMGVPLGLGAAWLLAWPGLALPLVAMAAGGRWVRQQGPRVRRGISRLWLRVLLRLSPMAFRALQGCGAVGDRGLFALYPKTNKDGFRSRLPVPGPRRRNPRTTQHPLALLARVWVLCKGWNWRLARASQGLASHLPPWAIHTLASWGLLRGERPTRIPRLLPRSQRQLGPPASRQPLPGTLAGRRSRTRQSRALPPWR
measuredAttribute: pIC50
Give only the number. pIC50 is defined as minus log10 of concentration in molar units.

Using the record for CN1CCN(c2ccc(Nc3ncc(C#N)c(Nc4ccccc4C(N)=O)n3)cc2)CC1.Cl , state its measured pIC50.
6.40
